Tested on: Caupolican (Caup) homeodomain DNA-binding domain
Sequence: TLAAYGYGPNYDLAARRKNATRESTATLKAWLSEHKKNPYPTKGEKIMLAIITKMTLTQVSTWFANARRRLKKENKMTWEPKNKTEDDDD
METHOD NOTES: PBM E-score (8-mer, recovered from the published 9-mer minima) (E-score (dimensionless, -0.5 to 0.5)); higher = stronger relative binding preference, active = 0.31 or more
The entries come from a sample that favours hits as a whole. The true hit rate is not given.
Outcome (select one): T (active), F (inactive)

ATACACAG :: F
GTTACGGA :: F
ATGTCACC :: F

Kindly provide the recorded test outcome for the following sequence: "AGCGTTCG"
F

Kindly provide the recorded test outcome for the following sequence: "AGTCTAAG"
F

Kindly provide the recorded test outcome for the following sequence: "GCCCTAAC"
F

Kindly provide the recorded test outcome for the following sequence: "GAGAGCTC"
F

Kindly provide the recorded test outcome for the following sequence: "ACTATAAT"
F

###

Tested on: Caupolican (Caup) homeodomain DNA-binding domain
Sequence: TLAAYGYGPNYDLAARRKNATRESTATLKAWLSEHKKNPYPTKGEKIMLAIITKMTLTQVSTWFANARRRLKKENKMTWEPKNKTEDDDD
METHOD NOTES: PBM E-score (8-mer, recovered from the published 9-mer minima) (E-score (dimensionless, -0.5 to 0.5)); higher = stronger relative binding preference, active = 0.31 or more
This is one part of a sample in which hits are shown more often than they occur. The true hit rate is not given.
Outcome (select one): TRUE for active, FALSE for inactive

ACCATGAT :: FALSE
CAAGGGCC :: FALSE

Kindly provide the recorded test outcome for the following sequence: "CACATGAG"
FALSE

Kindly provide the recorded test outcome for the following sequence: "AACCCCCG"
FALSE

Kindly provide the recorded test outcome for the following sequence: "ATATAACC"
FALSE

Kindly provide the recorded test outcome for the following sequence: "AACACACA"
TRUE

Kindly provide the recorded test outcome for the following sequence: "CCCCTTCG"
FALSE

Kindly provide the recorded test outcome for the following sequence: "ACAGTTCA"
FALSE

Kindly provide the recorded test outcome for the following sequence: "ATATAACA"
TRUE

Kindly provide the recorded test outcome for the following sequence: "AGCATGAT"
FALSE

Kindly provide the recorded test outcome for the following sequence: "ACGGGTAC"
FALSE

Kindly provide the recorded test outcome for the following sequence: "GATATGGC"
FALSE

Kindly provide the recorded test outcome for the following sequence: "CATCTAAG"
FALSE

Kindly provide the recorded test outcome for the following sequence: "AGCATGAC"
FALSE

Kindly provide the recorded test outcome for the following sequence: "GGAGGCAC"
FALSE

Kindly provide the recorded test outcome for the following sequence: "ACGGTGGC"
FALSE

Kindly provide the recorded test outcome for the following sequence: "AGCATGAG"
FALSE

###

Test system: Caupolican (Caup) homeodomain DNA-binding domain
Sequence: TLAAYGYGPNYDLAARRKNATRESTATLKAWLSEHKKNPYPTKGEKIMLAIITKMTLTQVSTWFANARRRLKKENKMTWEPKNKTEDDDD
METHOD NOTES: PBM E-score (8-mer, recovered from the published 9-mer minima) (E-score (dimensionless, -0.5 to 0.5)); Drosophila protein; higher = stronger relative binding preference, active = 0.31 or more
The sample as a whole holds a higher share of hits than the screen did. How many sequences the whole screen found active is unknown.
# PBM E-score >= 0.3 gives T, anything below gives F

Example entries and their recorded answers appear below.
AGCAAGAC :: F
TATACATA :: T
CTACAAAA :: F
CAAACACA :: F
ATTGTTCG :: F
AAAACATT :: F
GGCCGCGA :: F
ATAACATA :: T

Determine whether measured PBM E-score meets or exceeds 0.3 for "CAAACATG"
T

Determine whether measured PBM E-score meets or exceeds 0.3 for "AATACATG"
T

Determine whether measured PBM E-score meets or exceeds 0.3 for "CAGCCTGG"
F

Determine whether measured PBM E-score meets or exceeds 0.3 for "GAAGCGAA"
F

Determine whether measured PBM E-score meets or exceeds 0.3 for "GTAACATA"
T

The origin of these recorded values is the supplement of paper PMC3724861.
